FYI, the data here is from the RNAGym collection of RNA variant scans (doi:10.1093/molbev/msab373).

B1: Azoarcus group I ribozyme (parent)
chain: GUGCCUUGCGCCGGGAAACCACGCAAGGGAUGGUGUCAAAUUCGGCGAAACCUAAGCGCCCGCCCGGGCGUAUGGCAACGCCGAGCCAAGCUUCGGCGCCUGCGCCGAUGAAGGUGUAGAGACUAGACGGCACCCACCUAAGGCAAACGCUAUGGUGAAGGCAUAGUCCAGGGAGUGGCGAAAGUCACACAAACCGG

# Variants of: B1
# Experiment notes: reverse-splicing fitness (ratio to wild type); higher = more active; in vitro selection; Mg2+ level not given
Measure: reverse-splicing fitness
Give the value as a plain number.

Requested field: reverse-splicing fitness. Item: A111C A120G A145G C150U C169U U176G
0.00498

Data request, read-out reverse-splicing fitness, for A120G C150A C169A U176G
0.00569

Please look up its reverse-splicing fitness: A111C A120C A145C C150A C169A U176G
0.00655

Please give the measured reverse-splicing fitness for this variant: C82U A111G A120G A145C U176A
0.0105

Recorded reverse-splicing fitness of C82A A111U A145U C150G U176A , please.
0.01

***
Consider the variant shown here: A111C C150A C169U U176G What is its recorded reverse-splicing fitness?
0.00825

// query reverse-splicing fitness value for entry C82G A111C A120U A145U C169A
0.00231

Give the measured reverse-splicing fitness of C82U A111C A120U A145C C169U .
0.0039

Entry C82U A120C C150U C169U U176A has what reverse-splicing fitness?
0.0176

Returns the measured reverse-splicing fitness for the input variant. Input: A120U C150U C169U U176C
0.083

Given the variant C82G A120U A145C C150U U176G , what is its reported reverse-splicing fitness?
0.00871

Look up reverse-splicing fitness: C82A A111U A120G A145C C169A
0.0074

Returns the measured reverse-splicing fitness for the input variant. Input: C82G A111G A120G A145U C150U C169U U176G
0.00452

So what's the measured reverse-splicing fitness for this one? C82G A120G C150U C169U
0.0164

For the variant C82G A111C A120U A145C C150A C169A U176A , what reverse-splicing fitness is on record?
0.00209

What value of measured reverse-splicing fitness is listed for C82U A111U A120G C169G U176G ?
0.00437

Query: reverse-splicing fitness; subject: C82G A111G A120G A145U C150A U176C
0.0191
